Values compiled from patent US7727989B2.

biological target: human recombinant GSK-3β (Homo sapiens); test: GSK-3β activity, AlphaScreen, primed glycogen synthase substrate peptide; type: biochemical; conditions: human recombinant GSK-3β 0.18 nM, biot. phospho-glycogen synthase peptide 34 nM, 10 μM ATP, 60 min room temperature, triplicate; read-out: IC50
observationType: IC50 (nM)

Here's what some known entries look like.
CN1CCN(Cc2ccc3nc(-c4cc(-c5ccccc5)n[nH]c4=O)[nH]c3c2)CC1 [Example 53] = 42
O=c1[nH]nc(-c2ccncc2)cc1-c1nc2ccncc2[nH]1 [Example 38] = 32

[P] O=c1[nH]nc(-c2ccsc2)cc1-c1nc2ccccc2[nH]1 [Example 46]
[Q] O=c1[nH]nc(-c2ccnc(NC3CC3)n2)cc1-c1nc2ccccc2[nH]1 [Example 58]
[R] CN1CCN(Cc2ccc3nc(-c4cc(-c5ccncc5)n[nH]c4=O)[nH]c3c2)CC1 [Example 42]
[S] O=c1[nH]nc(-c2ccncc2)cc1-c1nc2cc(C(F)(F)F)ccc2[nH]1 [Example 6]
Please list these compounds in decreasing order of IC50. Please, when replying, give the labels in the order that was requested. Q, P, S, R
(Q: 50 nM, P: 28 nM, S: 16 nM, R: 7 nM)

###

target: human recombinant GSK-3β (Homo sapiens, UniProt P49841); assay: GSK-3β activity, AlphaScreen, primed glycogen synthase substrate peptide; type: biochemical
Sequence (P49841 whole entry): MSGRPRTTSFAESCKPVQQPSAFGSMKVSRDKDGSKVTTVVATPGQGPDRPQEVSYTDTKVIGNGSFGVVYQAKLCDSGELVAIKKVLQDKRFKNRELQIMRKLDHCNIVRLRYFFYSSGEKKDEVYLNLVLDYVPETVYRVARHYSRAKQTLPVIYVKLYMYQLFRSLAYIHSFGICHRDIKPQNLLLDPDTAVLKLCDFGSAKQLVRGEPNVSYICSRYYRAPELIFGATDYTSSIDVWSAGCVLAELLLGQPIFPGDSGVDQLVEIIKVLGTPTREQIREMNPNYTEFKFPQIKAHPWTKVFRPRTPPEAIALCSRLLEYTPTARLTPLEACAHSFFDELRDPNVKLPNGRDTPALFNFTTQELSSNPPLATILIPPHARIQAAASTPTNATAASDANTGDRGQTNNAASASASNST
observationType: pIC50
Convention used: pIC50 is expressed as -log10 of the molar concentration.

pIC50 for Cn1cc(-c2cc(-c3nc4ccccc4[nH]3)c(=O)[nH]n2)ccc1=O [Example 50] ? 6.80

###

observationType: melting point

CNc1nccc(-c2cc(-c3nc4cc(Cl)ccc4[nH]3)c(=O)[nH]n2)n1 [Example 14] = > 300 °C (dec.)

Continue with the next molecule.
Which melting point reading was recorded for the molecule O=C(NCCNC1CCCCC1)c1ccc2nc(-c3cc(-c4ccncc4)n[nH]c3=O)[nH]c2c1 [Example 8] ? 271 °C

###

biological target: human recombinant GSK-3β (Homo sapiens); assay: GSK-3β activity, AlphaScreen, primed glycogen synthase substrate peptide; assay type: biochemical; details: human recombinant GSK-3β 0.18 nM, biot. phospho-glycogen synthase peptide 34 nM, 10 μM ATP, 60 min room temperature, triplicate; read-out: IC50
pIC50: −log10 of the molar value.
observationType: pIC50

Cc1cc(-c2cc(-c3nc4ccc(C(F)(F)F)cc4[nH]3)c(=O)[nH]n2)cc(C)c1O = 7.25
N#Cc1ccc2[nH]c(-c3cc(-c4ccncc4)n[nH]c3=O)nc2c1 = 7.24
O=c1[nH]nc(-n2ccnc2)cc1-c1nc2ccccc2[nH]1 = 7.20

###

observationType: melting point

The examples below pair each entry with its known result.
O=c1[nH]nc(-c2ccncc2)cc1-c1nc2cc(F)ccc2[nH]1 = > 350 °C (dec.)
O=c1[nH]nc(-c2ccncc2)cc1-c1nc2cc(C(F)(F)F)ccc2[nH]1 = > 300 °C (dec.)
Cc1cc2nc(-c3cc(-c4ccncc4)n[nH]c3=O)[nH]c2cc1C = > 350 °C (dec.)
CN1CCN(CCCNC(=O)c2ccc3nc(-c4cc(-c5ccncc5)n[nH]c4=O)[nH]c3c2)CC1 = > 300 °C
CCCCNc1nccc(-c2cc(-c3nc4ccc(C(F)(F)F)cc4[nH]3)c(=O)[nH]n2)n1 = 288 °C
O=c1[nH]nc(-c2ccncc2)cc1-c1nc2ccccc2[nH]1 = > 350 °C (dec.)
CCCCNc1nccc(-c2cc(-c3nc4ccc(Cl)cc4[nH]3)c(=O)[nH]n2)n1 = 305 °C
Cc1cc(-c2nc3cc(Cl)ccc3[nH]2)c(=O)[nH]n1 = > 300 °C (dec.)

I am curious: what melting point value has been reported for `N#Cc1ccc2[nH]c(-c3cc(-c4ccncc4)n[nH]c3=O)nc2c1` ? > 350 °C (dec.)

Next compound up: `O=c1[nH]nc(-c2ccncc2)cc1-c1nc2ccc(Br)cc2[nH]1` > 350 °C (dec.)

Try this compound too: `O=c1[nH]nc(-c2ccncc2)cc1-c1nc2cc(Cl)ccc2[nH]1` > 300 °C (dec.)

Now the same for `O=C(NCCCO)c1ccc2nc(-c3cc(-c4ccncc4)n[nH]c3=O)[nH]c2c1` > 300 °C (dec.)

Repeat with `COc1ccc2nc(-c3cc(-c4ccncc4)n[nH]c3=O)[nH]c2c1` > 300 °C (dec.)

# repeat for `CN1CCN(c2ccc3[nH]c(-c4cc(-c5ccncc5)n[nH]c4=O)nc3c2)CC1` > 350 °C (dec.)

How about this compound: `Cc1cccc2nc(-c3cc(-c4ccncc4)n[nH]c3=O)[nH]c12` > 350 °C (dec.)
